// provenance: ChEMBL document CHEMBL1201862

# Protocol text: reduction of Shn3 3'UTR-driven luciferase in osteoblasts – cell-based, Clone20 osteoblasts, firefly luciferase, cherry-picked, dose response (AID 624132);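 also: firefly luciferase luminescence from reporter carrying the Shn3 3'UTR in osteoblasts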
# Format: functional
Calls of active or inactive are those of the source.
Readout name: AC50

COC(=O)C1=C(c2ccc(-c3ccccc3)c(F)c2)C[C@@H]2CC[C@H]1N2C(=O)NCC1CC1    4.32 µM (active)
Oc1nc2ccccc2n1C1CCN(C(CCc2ccccc2)c2nnnn2Cc2ccccc2)CC1 (stereo unspecified)    1.23 µM (active)

AC50 measured on Oc1ccc(-c2nc(-c3ccc(O)c(O)c3)cs2)cc1 = 5.07 µM (active)

AC50 measured on CC1CCC/C=C/C(=O)c2c(O)cc(O)cc2CC(=O)O1 (stereo unspecified) = 4.12 µM (active)

AC50 measured on CCCCC(=O)NC(c1ccc(N(CC)CC)cc1)c1ccc2cccnc2c1O (stereo unspecified) = 1.12 µM (active)

AC50 measured on Cc1ccc(-n2ncc3c(N4CCN(c5ccc(F)cc5)CC4)ncnc32)c(C)c1 = 3.24 µM (active)

###

# Assayed system: Cysteine protease ATG4B (Homo sapiens);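 also: Fluorescence-based dose-response confirmation assay measuring inhibition of ATG4B activity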
# Sequence (Q9Y4P1 whole entry): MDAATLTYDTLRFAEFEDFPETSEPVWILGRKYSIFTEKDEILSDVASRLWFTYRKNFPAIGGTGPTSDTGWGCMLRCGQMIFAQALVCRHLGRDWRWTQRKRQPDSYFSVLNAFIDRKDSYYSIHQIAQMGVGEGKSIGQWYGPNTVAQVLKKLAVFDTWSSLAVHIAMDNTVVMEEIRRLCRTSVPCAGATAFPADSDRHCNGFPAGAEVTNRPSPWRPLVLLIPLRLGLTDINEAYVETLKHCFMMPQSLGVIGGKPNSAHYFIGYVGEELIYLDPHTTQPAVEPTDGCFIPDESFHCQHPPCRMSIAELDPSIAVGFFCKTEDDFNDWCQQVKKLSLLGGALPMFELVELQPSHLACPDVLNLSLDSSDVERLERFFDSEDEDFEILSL
# Format: functional
Active and inactive are the calls of the source.
Can you answer with just one of these options? active, inactive

O=C(O)/C=C/c1ccccc1Oc1ccc(Cl)cc1Cl    active

Query: For O=C(NN1C(=O)/C(=C/C=C/c2ccco2)SC1=S)c1ccncc1 , which call appears in the assay record?
Reply: active

Query: For COc1ccc2c(c1)C(c1ccc(C)o1)=NNC(c1ccccc1)=N2 , which call appears in the assay record?
Reply: active

Query: For Cc1cc(C(=O)N2CCCC(C(=O)c3ccc(Oc4ccccc4)cc3)C2)[nH]n1 (stereo not given) , which call appears in the assay record?
Reply: inactive

Query: For COc1cccc(NS(=O)(=O)c2ccc3c(c2)C2C=CCC2C(c2ccc(C(=O)O)cc2)N3)c1 (stereo not given) , which call appears in the assay record?
Reply: active

###

# Test system: H9c2;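 also: cell death induced by hydrogen peroxide oxidative stress; compound pretreatment for 60 min then peroxide exposure for 2 h; potency is for protecting the cells against peroxide damage rather than for killing them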;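 also: confirmatory concentration-response retest of ultra-high-throughput screening hits for modulation of myocardial damage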
# Protocol text: cells
# Type: functional, cell-based
# Measurement conditions: Rattus norvegicus, H9c2, Myocardium
The source made the active and inactive calls.
Readout name: IC50

Cn1c(-n2c(CCCN3C(=O)c4ccccc4C3=O)nc3ccccc3c2=O)nc2ccccc21    15.3 µM (active)
COC(=O)c1cccc(Nc2nc(-c3cccnc3)nc3ccccc23)c1    4.96 µM (active)

IC50 measured on COc1cccc(C(=O)Nc2cccc(-c3nnc(-c4ccco4)o3)c2)c1 = 28.2 µM (active)

IC50 measured on O=C(Nc1cccc(/N=C/c2cc(Br)cc(Br)c2O)c1)c1ccco1 = 10.8 µM (active)
